Target: T1, human SLC34A2 (human, UniProt O95436 1-690)
T1 construct: whole, on cells; also called human solute carrier 34 A2; NaPi2b
T1 sequence (looked up): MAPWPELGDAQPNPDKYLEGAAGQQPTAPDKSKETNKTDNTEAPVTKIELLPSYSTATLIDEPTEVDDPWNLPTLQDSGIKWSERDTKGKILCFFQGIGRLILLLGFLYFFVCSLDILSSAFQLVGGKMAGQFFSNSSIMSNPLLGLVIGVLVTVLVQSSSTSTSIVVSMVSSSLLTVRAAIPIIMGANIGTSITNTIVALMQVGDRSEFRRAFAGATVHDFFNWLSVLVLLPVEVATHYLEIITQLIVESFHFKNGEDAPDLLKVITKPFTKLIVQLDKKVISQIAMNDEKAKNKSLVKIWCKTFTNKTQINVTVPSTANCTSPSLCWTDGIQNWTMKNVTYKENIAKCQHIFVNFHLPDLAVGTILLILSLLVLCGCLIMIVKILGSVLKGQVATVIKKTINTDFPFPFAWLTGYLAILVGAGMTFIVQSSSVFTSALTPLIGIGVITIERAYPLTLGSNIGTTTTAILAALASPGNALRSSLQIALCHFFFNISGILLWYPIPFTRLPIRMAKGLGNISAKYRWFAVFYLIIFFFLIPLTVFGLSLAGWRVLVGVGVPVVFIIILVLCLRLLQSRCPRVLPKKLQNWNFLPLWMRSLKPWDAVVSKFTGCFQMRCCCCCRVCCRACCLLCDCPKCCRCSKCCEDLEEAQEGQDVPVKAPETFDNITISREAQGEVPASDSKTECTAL
Experiment: FACS, HEK293/human SLC34A2 cells

binder	scaleUnit	EC50
xi90G10H7 hIgG1 (antibody, V domains shown, chimeric, hIgG1) VH: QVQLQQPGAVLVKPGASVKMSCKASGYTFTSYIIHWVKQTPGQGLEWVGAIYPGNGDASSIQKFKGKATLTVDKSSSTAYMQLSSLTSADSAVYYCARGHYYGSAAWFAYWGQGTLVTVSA VL: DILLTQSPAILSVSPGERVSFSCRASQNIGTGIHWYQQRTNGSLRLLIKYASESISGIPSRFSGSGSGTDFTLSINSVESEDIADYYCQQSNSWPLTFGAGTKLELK	nM	1.52
xi63A11D5B4 hIgG1 (antibody, V domains shown, chimeric, hIgG1) VH: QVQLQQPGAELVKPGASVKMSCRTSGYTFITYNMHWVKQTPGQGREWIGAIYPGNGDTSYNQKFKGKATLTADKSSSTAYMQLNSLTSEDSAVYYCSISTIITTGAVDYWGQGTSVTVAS VL: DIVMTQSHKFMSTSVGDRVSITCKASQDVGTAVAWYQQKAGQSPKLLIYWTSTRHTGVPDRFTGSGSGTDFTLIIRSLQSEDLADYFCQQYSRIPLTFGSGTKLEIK	nM	1.5
